test system: HEK-293T; assay: Multiplex assay against HEK293T; format: toxicity, cell-based; conditions: human, 48 h, 1 µM, compound concentration 1 uM, replicate 1
Decision: Population Mitotic Cells (%) beneath 50% gives MET; Population Mitotic Cells (%) meeting or exceeding 50% gives NOT MET.

Consider the worked cases shown below.
| Compound | Study system | Label value |
| --- | --- | --- |
| N#Cc1cccc(C(=O)Nc2cc(-c3ccccc3)nn2-c2ccccc2)c1 | HEK-293T | NOT MET |
| Cl.NC[C@@H]1O[C@H](C23CC4CC(CC(C4)C2)C3)Cc2c1ccc(O)c2O | HEK-293T | NOT MET |
| CCCc1cc(C)[nH]c(=O)c1CNC(=O)c1cc(-c2ccc(N3CCN(C(C)C)CC3)nc2)cc2c1cnn2C(C)C | HEK-293T | MET |
| CC(Cc1ccc(O)c(O)c1)C(C)Cc1ccc(O)c(O)c1 (configuration not stated) [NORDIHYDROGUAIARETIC ACID] | HEK-293T | NOT MET |
| Cc1c(P(=S)(c2ccccc2)c2ccccc2)n2ccccc2[n+]1C/C=C/c1ccccc1.[Br-] | HEK-293T | MET |
| CCCCN(CC)c1nc(C)nc2c1c(C)cn2-c1c(C)cc(C)cc1C.Cl | HEK-293T | NOT MET |

Query: Report whether reported Population Mitotic Cells (%) is lower than 50% (strictly) for `CC(/C=C1\SC(=S)N(CCCC(=O)Nc2ccc(C(=O)O)c(O)c2)C1=O)=C\c1ccccc1`
Response: NOT MET

Query: Report whether reported Population Mitotic Cells (%) is lower than 50% (strictly) for `Cc1ccc(S(=O)(=O)NC2c3ccccc3Oc3ccccc32)cc1`
Response: NOT MET

Query: Report whether reported Population Mitotic Cells (%) is lower than 50% (strictly) for N#CCNC(=O)c1ccc(-c2ccnc(Nc3ccc(N4CCOCC4)cc3)n2)cc1 [MOMELOTINIB]
Response: NOT MET

Query: Report whether reported Population Mitotic Cells (%) is lower than 50% (strictly) for `CC(C)c1cc(Nc2nc(N3CCC[C@H](N)C3)ncc2C(N)=O)cc(C(C)C)n1`
Response: MET
